Listing: log10(microsomal CLint) of selected molecules
Experiment: in vitro
Assay type: in vitro ADME, rat
Details: rat, microsomes; RLM (male Sprague-Dawley) 0.50 mg/mL, NADPH 1 mM, 1 μM compound, pH 7.4, 37° C., 60 min; read-out: Intrinsic clearance (Clint)
readoutKind: log10(microsomal CLint) (log10 of the value in µL/min/mg)

{"molecule": "CC[C@@H](C)NC(=O)[C@@H]1C=C2c3cccc4[nH]cc(c34)C[C@H]2N(Cc2ccccc2)C1", "log10(microsomal CLint)": 2.39}
{"molecule": "CCN(CC)C(=O)[C@@H]1C=C2c3cccc4[nH]cc(c34)C[C@H]2N(Cc2cocn2)C1", "log10(microsomal CLint)": 1.71}
{"molecule": "CCN(C)C(=O)[C@@H]1C=C2c3cccc4[nH]cc(c34)C[C@H]2N(Cc2cccc(OC)c2)C1", "log10(microsomal CLint)": 2.44}
{"molecule": "CC[C@@H](C)NC(=O)[C@H]1C=C2c3cccc4[nH]cc(c34)C[C@H]2N(Cc2ccccc2)C1 [Compound 88a]", "log10(microsomal CLint)": 2.92}
{"molecule": "[2H]C([2H])(c1cccc(OC)c1)N1C[C@H](C(=O)N(CC)CC)C=C2c3cccc4[nH]cc(c34)C[C@H]21", "log10(microsomal CLint)": 2.56}
{"molecule": "CCN(CC)C(=O)[C@@H]1C=C2c3cccc4[nH]cc(c34)C[C@H]2N(Cc2cccc(C#N)c2)C1", "log10(microsomal CLint)": 2.06}
{"molecule": "CCN(CC)C(=O)[C@H]1C=C2c3cccc4[nH]cc(c34)C[C@H]2N(CC2CCCCC2)C1 [Compound 89a]", "log10(microsomal CLint)": 2.48}
